Assay: antivirals protecting cells from dengue CPE – CPE readout, HTS (AID 540333)
Details: Dengue virus CPE inhibition in host cells, at 20 µM
In all, about 10,000 compounds went through this assay and about 320 (3.2%) were called active. No stated cut-off is given here; in the data, active means CPE inhibition mostly above about 9.1% (no sharp cut-off); inactive means mostly below about 7.2%. Only a selection was taken, and actives are over-represented in it overall.
Return exactly one item of active, inactive

(Q) Which outcome was assigned to CCOC(=O)C1=C(C)NC(=S)NC1/C=C/c1ccccc1 (stereo unspecified) in this test?
(A) inactive

(Q) Which outcome did this test record for the compound COc1ccc(C2OCC3(CO2)SC(=O)NC3=O)cc1 (stereo unspecified) ?
(A) inactive

(Q) Tell me the assay call for `COc1ccc(CC(=O)NNc2ncnc3c2cnn3C)cc1` please.
(A) inactive

(Q) Hello, I am checking results. What call was entered for CN(C)c1ccc(C(CNS(=O)(=O)c2ccc(F)cc2)c2c[nH]c3ccccc23)cc1 (stereo unspecified) ?
(A) active

(Q) Recorded test outcome, item COc1ccc(C(=O)OC(C)C(=O)Nc2cc(C(F)(F)F)ccc2Cl)c(OC)c1OC (stereo unspecified)
(A) inactive

(Q) Per the records of this test, what outcome belongs to `COC(=O)Cc1ccc(NC(=S)NCc2ccc(Cl)cc2)cc1` ?
(A) inactive
